Measured values drawn from PubChem BioAssay (NCI) for this set.

System: HOP-62 NSCLC
Assay: NCI-60 one-dose screen, 48 h
Conditions: 10 µM unless noted
This is part of a sample that, as a whole, favours compounds with a hit. Of some 83,000 tested, about 20% had one in any assay. The source made the active and inactive calls. Rule for the calls: active = growth percent below 10; inactive = the rest.
Outcomes: active, inactive

molecule | label
C/C(=C(/c1ccc(O)cc1)c1ccc(OCCN2CCCC2)cc1)c1ccc(Cl)cc1 | inactive
CCCCCCNC(=O)Oc1ccc(/C(=C(/C)c2ccc(OC)cc2)c2ccc(OCCN3CCCC3)cc2)cc1 | inactive
Cc1occc1-c1nc2s/c(=C\c3cn(-c4ccccc4)nc3-c3ccccc3)c(=O)n2n1 | inactive
CCC(=O)Nc1ccc(-c2nc(-c3cccc(O)c3)c(-c3ccnc(Br)c3)[nH]2)cc1 | inactive
O=C(COc1ccc(/C=C2\SC(=O)NC2=O)cc1)Nc1ccc(C(=O)/C=C/c2cc3ccccc3nc2Cl)cc1 | inactive
O=C(c1cccc(F)c1)n1ccc2cc(NC(=S)Nc3cccnc3)ccc21 | inactive
C=C(C)[C@@H]1CC[C@]2(C(=O)ON)CC[C@]3(C)[C@H](CC[C@@H]4[C@@]5(C)C/C(=C/c6ccc(Br)cc6)C(=O)C(C)(C)[C@@H]5CC[C@]43C)[C@@H]12 | inactive
O=C1c2c(c3c4cccnc4[nH]c3c3ccc4ccccc4c23)C(=O)N1CCN1CCNCC1 | inactive
COc1cc(CNC(=O)Cc2ccccc2[N+](=O)[O-])ccc1OCC(=O)NO | inactive
Cn1cc(-c2nn3cc(-c4ccncc4)nc3s2)c2cc(Cl)ccc21 | inactive
COc1cc(CNC(=O)/C=C/c2ccccc2)ccc1OCC(=O)NO | inactive
CCOC(=O)C1=C(C)Nc2nnc(Nc3ccccc3)n2C1c1ccccc1 (stereo not drawn) | inactive
COC(=O)c1c(C(=O)OC)c2n(CC(=O)Nc3cccc4cccnc34)c3ccccc3n2c1C(=O)c1ccc(C)cc1 | inactive
CN1CCN(c2nc(-c3csc(-c4ccncc4)n3)cc3ccccc23)CC1 | inactive
Cn1cc(-c2nn3cc(-c4cccnc4)nc3s2)c2ccccc21 | inactive
IP(CCCCCCCCCCSc1n(Cc2ccc3ccccc3c2)c(-c2ccccc2)c(-c2ccccc2)[n+]1Cc1ccc2ccccc2c1)(c1ccccc1)(c1ccccc1)c1ccccc1 | active
CC(C)(C)n1nnnc1C(Nc1nccs1)c1cc2cccc3ccc4cccc1c4c32 (stereo not drawn) | inactive
CC(C)=CCc1c2c(c(O)c3c1O[C@]14C(=C[C@@H]5C[C@H]1C(C)(C)O[C@@]4(C/C=C(/C)C(=O)O)C5=O)C3=O)CC(O)C(C)(C)O2 (stereo partly drawn) | active
